B1: CPEB3 Ribozyme (parent)
chain: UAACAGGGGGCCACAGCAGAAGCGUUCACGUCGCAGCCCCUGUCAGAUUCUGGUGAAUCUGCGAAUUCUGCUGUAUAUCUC

variants of: B1; assay: self-cleavage, relative activity (ratio to wild type); higher = more cleavage; in vitro, sequencing
Answer each item with its documented self-cleavage.
Answers are plain numbers.

# annotated cases, reported self-cleavage shown
variant-key	self-cleavage
A3G U72G	1.07
C29A U31A	0.3
G8U U58C	0.1

Below are 8 variants. Give each one its self-cleavage.
1. G19A U51C
2. A28G A57G
3. A20U U49A
4. A21U A45G
5. U78A
6. A35G U48C
7. A2G U72C
8. G24A G63C

## Result
1: 0.32; 2: 0.51; 3: 0.2; 4: 0.29; 5: 1.12; 6: 1.21; 7: 0.74; 8: 0.16

Parameters: items (list). Returns: self-cleavage for each item.
1. A75G A77U
2. G52A U58G
3. A20G U25G
4. U43G U51C
5. U31C U69G
6. G63A A64C
7. G52U U58C

## Result
1. 1.05
2. 0.34
3. 0.41
4. 0.2
5. 0.41
6. 0.42
7. 0.87

For the 6 variants below, give their self-cleavage values.
1. U51A U76A
2. C27U U43A
3. C4G G8C
4. C40U G42A
5. G16U U31C
6. U51A A77G

## Result
1.09
0.29
0.66
0.27
0.19
0.93
